Values were extracted from the supplement of paper PMC10567573.

B1: ZNF649 (parent)
chain: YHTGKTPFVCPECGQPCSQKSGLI

# Variants of: B1
# PROTOCOL_NOTES: protein stability index of a GFP-peptide fusion (GPS, HEK-293T) (PSI 1-6); higher = more stable;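 note: lentivirally expressed fusions sorted by FACS into six bins by GFP to DsRed ratio, PSI derived from sequencing read proportions per bin multiplied by bin number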
# SETTINGS: c terminus: a fixed tail appended
Kind request: treat 2 as inclusive, so protein stability index at 2 or higher is Y, anything lower is N.

Some solved cases for reference:
{"RESIDUE_CHANGE": "K20E", "CATEGORY": "N"}
{"RESIDUE_CHANGE": "P7Q", "CATEGORY": "N"}
{"RESIDUE_CHANGE": "H2M", "CATEGORY": "Y"}
{"RESIDUE_CHANGE": "G22P", "CATEGORY": "Y"}
{"RESIDUE_CHANGE": "P16M", "CATEGORY": "N"}
{"RESIDUE_CHANGE": "I24A", "CATEGORY": "N"}

Ask | Decide: protein stability index of H2P >= 2?
Reply | Y

Ask | Is the recorded value of protein stability index equal to or greater than 2 for this variant? S18M
Reply | Y
